compounds and their reported concentration at 8 h
test_summary: Plasma concentration in mouse xenografted with human HMC1 cells at 10 mg/kg, iv dosed at time 0 and again 24 hrs later and measured at 8 hrs after second dose by LC-MS/MS analysis
Format: ADME, organism-based
Express your answer in nM, writing the number without its unit.

Given the entry NCc1ccc2c(c1)C1(CCN(C(=O)c3cccc(-c4cccc(B(O)O)c4)c3)CC1)CO2.O=C(O)C(F)(F)F , report its measured concentration at 8 h.
43

So what's the measured concentration at 8 h for this one? NCc1ccc2c(c1)C1(CCN(C(=O)c3cc(O)c(O)c(Cl)c3)CC1)CO2.O=C(O)C(F)(F)F
1.28

====

test_summary: Stability in human liver microsomes assessed as parent compound remaining at 15 uM in absence of NADPH incubated for 60 mins
Assay type: ADME, Microsome
stated_conditions: liver microsomes, read-out: Stability
remaining at 1 h, 15 µM values, listed per item
Reply with just the number (in %).

NCc1ccc2c(c1)C1(CCN(C(=O)c3cccc(-c4cccc(B(O)O)c4)c3)CC1)CO2	85
NCc1cccc(C2CCN(C(=O)c3ccc(O)c(O)c3)CC2)c1	43
NCc1cccc(C2CCN(C(=O)c3cccc4ccc(B(O)O)cc34)CC2)c1	97

Need remaining at 1 h, 15 µM of NCc1cccc(C2CCN(C(=O)c3cc(O)c(O)c(Cl)c3)CC2)c1 , thanks.
28

====

A collection of molecules and their measured Tmax
test_summary: Tmax in C57BL/6 mouse at 50 mg/kg, po measured over 0.25 to 24 hrs by LC-MS/MS analysis
Type: ADME, organism-based
stated_conditions: in vivo
Output spec: scalar in min, unitless text.

NCc1ccc2c(c1)C1(CCN(C(=O)c3cccc(-c4cccc(B(O)O)c4)c3)CC1)CO2	30

Turning to the following molecule.
So what's the measured Tmax for this one? NCc1ccc2c(c1)C1(CCN(C(=O)c3cc(O)c(O)c(Cl)c3)CC1)CO2
15

====

test_summary: Dissociation constant, pKa of the compound (B(OH)2) by UV metric assay
Type: physicochemical
experimental_endpoint: pKa
Simply state the number, no unit and no words.

What measured pKa goes with NCc1cccc(C2CCN(C(=O)c3cccc4ccc(B(O)O)cc34)CC2)c1 ?
8.51

====

test_summary: Effective permeability from apical to basolateral side in PAMPA method
Type: ADME
stated_conditions: read-out: Peff
Listed below: Papp values for each entry.
Answer format: number, then unit.

NCc1cccc(C2CCN(C(=O)/C=C/c3ccc(O)c(O)c3)CC2)c1	0.01 ×10⁻⁶ cm/s

// next item, Papp requested
Tell me the measured Papp of NCc1cccc(C2CCN(C(=O)c3cccc4ccc(B(O)O)cc34)CC2)c1 , please.
2.06 ×10⁻⁶ cm/s

====

Listing of entries alongside the reported inhibition at 10 µM.
assay_target: CYP2C9 (Homo sapiens, UniProt P11712)
Sequence (P11712 whole entry): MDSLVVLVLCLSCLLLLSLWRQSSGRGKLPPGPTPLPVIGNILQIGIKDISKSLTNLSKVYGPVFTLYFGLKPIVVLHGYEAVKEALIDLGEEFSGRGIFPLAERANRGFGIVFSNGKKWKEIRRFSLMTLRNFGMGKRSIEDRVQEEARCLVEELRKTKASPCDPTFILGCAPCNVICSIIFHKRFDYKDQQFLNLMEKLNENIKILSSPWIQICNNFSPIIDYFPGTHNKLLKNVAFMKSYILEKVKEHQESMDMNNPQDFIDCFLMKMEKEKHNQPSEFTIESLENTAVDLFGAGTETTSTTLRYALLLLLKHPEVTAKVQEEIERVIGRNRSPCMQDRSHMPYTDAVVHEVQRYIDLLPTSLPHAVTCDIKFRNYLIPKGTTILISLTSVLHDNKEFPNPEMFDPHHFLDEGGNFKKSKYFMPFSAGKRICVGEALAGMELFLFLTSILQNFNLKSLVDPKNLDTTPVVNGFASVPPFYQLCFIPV
test_summary: Inhibition of CYP2C9 (unknown origin) at 10 uM relative to control
Type: ADME
// return numeric value only (unit: %, not printed)

NCc1cccc(C2CCN(C(=O)c3cccc4ccc(B(O)O)cc34)CC2)c1	97

Data request, read-out inhibition at 10 µM, for NCc1cccc(C2CCN(C(=O)/C=C/c3ccc(O)c(O)c3)CC2)c1
75

====

test_summary: Stability in human liver microsomes assessed as parent compound remaining at 15 uM in absence of NADPH incubated for 60 mins
Format: ADME, Microsome
stated_conditions: liver microsomes, read-out: Stability
experimental_endpoint: remaining at 1 h, 15 µM
Entry format: amount then unit.

Can you look up the measured remaining at 1 h, 15 µM of NCc1cccc(C2CCN(C(=O)/C=C/c3ccc(O)c(O)c3)CC2)c1 for me?
11%

I am curious: what remaining at 1 h, 15 µM value has been reported for CONC(=O)c1cc(C(=O)N2CCC(c3cccc(CN)c3)CC2)ccc1O ?
81%

Given the compound NCc1cccc(C2CCN(C(=O)c3cccc(-c4cccc(B(O)O)c4)c3)CC2)c1 , what is its reported remaining at 1 h, 15 µM?
1%

Recorded remaining at 1 h, 15 µM of NCc1ccc2c(c1)C1(CCN(C(=O)c3ccc(O)c(O)c3)CC1)CO2 , please.
94%

Recorded remaining at 1 h, 15 µM of NCc1cccc(C2CCN(C(=O)c3ccc(CO)c(O)c3)CC2)c1 , please.
63%

Origin of the recorded values: ChEMBL document CHEMBL4342466
